# ASSAY NOTES: yeast display, Sf9 membrane polyspecificity reagent, FACS + sequencing; frameworks hold sequencing errors
READOUT TYPE: polyreactivity (PSR sort gate)

Example sequences with recorded polyreactivity (PSR sort gate):
>>> endpoint_result("QVQLVESGAGLVQARGSLRLSCAASGRIFYQYAMGWYRQAPGKERELVAAISWNGGRTYYADSVKGRFTISRDNAKNTVYLQMNSLKPEDTAVYYCAASFTGYSRDRYGYWGQGTQVTVSS")
"high polyreactivity"
>>> endpoint_result("QVQLVESGGGLVQAGGSLRLSCAASGITFYIYAMGWYRQAPGKERELVATISWSDGRTYYADSVKGRFTISRDNAKTTVYLQMNSLKPEDTAVYYCAADWWYYQFDYEYWGQGTQVTVSS")
"low polyreactivity"
>>> endpoint_result("QVQLVESGGGLVQAGGSLRLSCAASGYTFPYYTMGWYRQAPGKERELVAAISSGGRTKYADSVKGRFTISRDNAKNTVYLQMNSMKPEDTAVYYCNAVHSPAQCRSKYYPYNYWGQGTQVTVSS")
"high polyreactivity"
>>> endpoint_result("QVQLVESGGGLVHAGGSLRLSCAASGFTFGSNAMGWYRQAPGKERELVAAISSRGGRTYYADSVKGRFTISRDNAKNTVYLQMNRLKPDDTAVYYCNADATVAWREQEYEYWGQGTQVSVSS")
"high polyreactivity"
>>> endpoint_result("QVQLVESGGGLVQAGGSLRLSCAASGRIFPYYTMGWYRQAPGKERELVAAISSSGGSTYYADSVKGRFTISRDNAKNTVYLQMNSLKPEDTAVYYCNIRRHSLYGGTTTRYDYWGQGTQVTVSS")
"high polyreactivity"

Fill in polyreactivity (PSR sort gate) for record QVQLVESGGGLVQAGGSLRLSCAASGSIFGRYAMGWYRQAPGKERELVAAISRTGVSTYYADSVKGRFTISRDNAKNTVYLQMNSLKPEDTAVYYCNAVRLSWQNTYYYWGQGTQVTVSS
high polyreactivity

Consider the sequence QVQLVESGGGLVQAGGSLSLICAASGSTLATYTMGGYRQAPGKERELVAAISFGGSTYYADSVKGRYTISRDNAKNTVYLQMISLKPEDTAVYYCAVYGDSYWGAYYYSDGYWGQGTQVTVSS and give its recorded polyreactivity (PSR sort gate).
low polyreactivity

Give reported polyreactivity (PSR sort gate) value for QVQLVESGGGLVQAGGSLRLSCAASGSNFTFNALGWYRQAPGKERELVAAISKSGDRTYADSVKGRFTISRDNAKNTVYLQMNSLKPDDTAVYYCAADFSVSRYDYWGQGTQVTVSS
low polyreactivity

Name the recorded polyreactivity (PSR sort gate) of the sequence listed here: QVQLVESGGGLVQAGGSLRLSCAATGSIDSNALGWYRQAPGKERELVADITSGTPTYADSVKGRFTITRDNAKNTVYLQMNSLKPEDTAVYYCAADIPPWGGDYWGQGTQVTVSS
low polyreactivity

Item QVQLVESGGGLVQAGGSLRVSCAPSGRTFSWYAMGWYRQAPGKEREFVAAIRWSGSSTYYADSVKGRFTISRDNAKNTVYLHMNSLKPEDTAVYYCAVAAGIPQRRYYYWGHGTQVTVSS : provide polyreactivity (PSR sort gate)
high polyreactivity

Given the sequence QVQLVESGGGLVQAGGSLRLSCAASGFTFIKYAMGWYRQATGNEREFVATISWNGGNTYYADSVKGRFTISRDNAKNTVYLQMNSLKPEDTAVYYCAARVKYRTRGGTVVSYDYWGQGTQVTVSS , write its reported polyreactivity (PSR sort gate).
high polyreactivity

// Input: QVQLVESGGGLFQAGGSLRLSCAASGGIFDVYDMGWYRQAPGKERELVAAISEKGGSTYYADSVKGRFTISRDNAKNTGYLQMNSLKPEDTAVYYCAADYVCLSVFSYWAWYDYWGQGTQVNVSS . Output its polyreactivity (PSR sort gate) only.
low polyreactivity

// Input: QVQIVESGGGLVQAGGSLRLSCAASGSIFPRMAMGWYIQAPGKERELVAAITTGGITNYADSVKGRFTISRDHAKNTVYLQMNSLNPDDTAVYYCAATSWRYQQSTRYKGRRYYSWGQGTQVTVSS . Output its polyreactivity (PSR sort gate) only.
high polyreactivity

====

# ASSAY NOTES: yeast display, Sf9 membrane polyspecificity reagent, FACS + sequencing; frameworks hold sequencing errors
READOUT TYPE: polyreactivity (PSR sort gate)

Examples with their reported polyreactivity (PSR sort gate) follow.
>>> endpoint_result("QVQLVESGGGLVQAGGSLRLSCAASGSIFPYNAMGWYRQAPGEFVAAISYSSGSTYYADSVKGRFTISRDNAKNTVYLQMNSLKPEDTAVYYCAAGSWYPPSYVWLGRYDYWGQGTQVTVSS")
"low polyreactivity"
>>> endpoint_result("QFQLVESGGGLVQAGGSLRLSSAASGSTFYYNAMGWYRQAPGKERELVAVITSGVSTYYADSVKGRFTISRDNAKNTVYLQMNSLKPVDTAVYYCAADLYRPYEYQLDYWGHGTQVTVSS")
"low polyreactivity"
>>> endpoint_result("QVQLVESGGGLVQAGGSLRLSCAASGSIFHGYAMGWYRQAHGKETELVAVITRGGNTYYADSVKGRFTISRDNAKNTVYLQMNSLKPEDTAVYYCNKAVDRGRRAYGYWGQGTQVTVSS")
"high polyreactivity"
>>> endpoint_result("QVQLVESGGGLVQAGGSLRLSCAASGIIFYYYAMGWYRQAPGKERELVAAITGTGSRTYYADSVKGRFTISRDNAKNTVYLQMNSLKPEDTAVYYCNARSFATGSKVPARGYWGQGTQVTVSS")
"high polyreactivity"

Now consider a different sequence.
// Input: QVQLVESGGGLVQAGGSLRLSCAASGGTFHHYAMGWYRQAPGKERELVASITNGASTYYADSVKGRFTISRDNAKNTVYLQMNSLKPEDTAVYYCAKRCRVGKYRYEYWGQGTQVTVSS . Output its polyreactivity (PSR sort gate) only.
low polyreactivity

====

# ASSAY NOTES: yeast display, Sf9 membrane polyspecificity reagent, FACS + sequencing; frameworks hold sequencing errors
READOUT TYPE: polyreactivity (PSR sort gate)

>>> endpoint_result("QVQLVESGGGLVQAGGSLRLSCAASGSIFSYTMGWYRQAPGKERELVAAITSGGITYYADSVKGRFTISRDNAKNTVYLQMNSLKPEDTAVYYCNKDVGFTRPLYYWGQGTQVTVSS")
"low polyreactivity"
>>> endpoint_result("QVQLVESGGGLVQAGGSLRLSCAASGGTFMYYDMGWYRQAPGKERELVAAISSGSSTYYADSVKGRFTISRDNAKNTVYLQMNRLKQEDTAVYYCAKLHYAHYWGQGTQVTVSS")
"low polyreactivity"

====

# ASSAY NOTES: yeast display, Sf9 membrane polyspecificity reagent, FACS + sequencing; frameworks hold sequencing errors
READOUT TYPE: polyreactivity (PSR sort gate)

// worked examples, polyreactivity (PSR sort gate) included
>>> endpoint_result("QVQLVESGGGLVQAGGSLRLSSAASGRTFHSYARGWYRQSPGKERELVAGMSWGGTRTTYADSVKGRFTLSRDNAKNTVYLQMNSLKPEDTADYYCNAVYYALGRSPPDYGYWGQGTQVTVSS")
"low polyreactivity"
>>> endpoint_result("QVQLVESGGGLVQAGGSLRLSCAASGFIFPLYTMGWYRQAPGKERELVAAISVTGGSTYYADSVKGRFTISRDNAKNTVYLQMNSLKPEDTAVYYCNAYLFFLNRVWSFDYWGQGTQVTVSS")
"high polyreactivity"
>>> endpoint_result("QVQLVESGGGLVQAGGSLRLSCSASGSIFLYYTMGWYRQEPGKERELVAAITWSGASTYYADSVKGRFTISRDNGKITVYLQMNSLKPEDTAVYYCATRYRYRYCGQGTQVTVSS")
"high polyreactivity"
>>> endpoint_result("QVQLVESGGGVVQAGGSLRLSCAASGSTFYPYALGWYRQAPGKERELVAGITVIDGSTYYADSVKGRFTISRDNAKNTVYLQMNSLKPEDTAVYYCAVDAPNQVQEYGYWGQGTQVTVSS")
"low polyreactivity"

We next turn to a different sequence, shown below.
Please report the measured polyreactivity (PSR sort gate) for QVQLVESGGGLVQAGGSLRLSCAASGFTFRIYAMGWYRQAPGKERELVAAITSSGGTTYYADSVKGRFTISRDNAKNTVYLQMNSLKPEDTAVYYCNVAGFKYYSWGTYDYWGQGTQVTVSS
high polyreactivity

====

# ASSAY NOTES: yeast display, Sf9 membrane polyspecificity reagent, FACS + sequencing; frameworks hold sequencing errors
READOUT TYPE: polyreactivity (PSR sort gate)

Example cases with answers are listed next.
>>> endpoint_result("QDQLVESGGGLVQAGGSLRLSFAASGSIFGVNALGWYRQAPGKERELVAAISARGGSTYYADSVKGRFTISRDNAKNTVYLQMNSQKPEDTAVYYCAATFRARPRENYWGQGTQVTVSS")
"high polyreactivity"
>>> endpoint_result("QVQLVESGGCIVQAGGSLRLSCAASGFTFRTNTKGWYRQAPGKDRELVAAISRSGGSTYYADSVKGRFTISRDNAKNTVYLQMNSLKPEDTAVYDCNAVGRSDSYYLAYNYWGQGTQVTVSS")
"high polyreactivity"
>>> endpoint_result("QVLLVESGGGIVQAGGSLRLSCSASGIIFPCYAMGWYRQAPGKERELLAAISSSGSSTYYADSVMGRFTITRDNAKNTVYLQMNSLKPEDTAVYYCAAVRYGMRRMDYWGQGTQVTVSS")
"high polyreactivity"
>>> endpoint_result("QVQLVESGGGLVQAGGSLRLSCAASGFTLSRNAMGWYRQAPGKERELVAAISYSGARTYYADSVKGRFTISRDNAKNTVYLQMNRLKPEDTAVYYCAKVVPYPDYDYWGQGTQVTVSS")
"high polyreactivity"
>>> endpoint_result("QVQLVESGGGLVQAGGSLRLSCAASGFTFAGYAMGWYRQAPGKERELVAGIRSSGARTYYADSVKGRFTISRDNAKNTVYLQMNSLKPEDTAVYYCAKTDGFYRGYGYWGQGTQVTVSS")
"low polyreactivity"
>>> endpoint_result("QVHLVESGGGLVQAGGSLRLSCASSGSIFRYNTMGWYRQAPGKERELVAAIRGDGSTNYADSVKGRFTISRDNAKNTVYLQMNSLKPEDTAVYYCAVNLRGYRYAYDYWGQGTKVTVSS")
"low polyreactivity"
>>> endpoint_result("QVQLVESGGGLVQAGGSLRLSCAASGSIFSKYAMGWYRQAPVKERELVAAIDWSGGSTYYADSVKGRFTISRDNAKNTVYLQMNSLKPEDTAVYYCNAEYVVADYGYYTIEFDYWGQGTQVTVSS")
"low polyreactivity"
>>> endpoint_result("QVQLVESGGGLVQAGGSLRLICAVSGHIFGSNAMGWYRQAPGKERELVAAIRSSGGSTYYADSVKGRFTISRDYAKNTVYLQMNSLKPEDTAVYYCAVETLTSTSLTRMDYWGQGTQVTVSS")
"low polyreactivity"
>>> endpoint_result("QVQLVESGGGLVQAGGSLRLSCAASGSTFEDNTMGWYRQAPGKEREFVADISNIGGDTTYADSVKGRFTISRDNAKNTVYLQMNSLKPEDTAVYYCAAVKGHSQVLSYGYWGQGTQVTVSS")
"low polyreactivity"
>>> endpoint_result("QVQLVESGGGLVQAGGSLRLSCAASGRIVGRNAMGWYRQAPGKERELVAAISSGGGRTYYADSVKGRFTISRDNAKNTVYLQMNSLKPEDTAVYYCNAGWRGRFYYWGQGTQVTVSS")
"high polyreactivity"

Tell me its polyreactivity (PSR sort gate) given QVQLVESGGGLVQAGGSLRLSCAASGFTYYIYAMGWYRQAPGKERELVAAISRSAGITNYADSVKGRFTISRDNAKNTVYLQMNSLKAEDTAVYYCAAEVGYWGYQISGDYWGQGTQVTVSS as the entry.
low polyreactivity
